- measurement description: folding stability dG unfold from chymotrypsin proteolysis; higher = more stable
quantity name: folding stability dG unfold
# number then unit; no other words

Looking up SAGGFRIERDGDYLRIEIRVNDPPGQPVEEAKNIMKQLFGFKDIKVDEIEPNPNGQAEIEIEIPFPKSAGGS [r16_234_TrROS] , I found its folding stability dG unfold recorded as -0.3 kcal/mol

Looking up SADYVLYLVTLKVRRKVGDKEYELEVPLLILAPEDELDESEIEAIAREAAAELGAEVEEVKIERLPLNASAG [r14_278_TrMRF] , I found its folding stability dG unfold recorded as 4.88 kcal/mol

More entries:
Looking up SAGGSAGGSAGSMVEVTYEPDPATGGSRIVTTTRFPDRNTVTVTELDPNAGVPLETVEVESAGGSAGGSAGG [r11_676_JUSTAS] , I found its folding stability dG unfold recorded as -0.16 kcal/mol

Looking up SAGGSAVTAEWILDHMRDMGMPEEDVKIDDVQLEREPDKVVIRIEITMRHPNDGKQRRMDMEIPLPSAGGSA [r15_863_TrROS] , I found its folding stability dG unfold recorded as -0.164 kcal/mol

Looking up SAGGSMVKEIEIPVPEDWTPEDAVEAAREYLEANPELENVIVRFTLPDGTPLVVEIKPGGKIVKVTPESAGG [r13_690_JUSTAS] , I found its folding stability dG unfold recorded as 3.26 kcal/mol

Looking up SAGGSAGGSKAGQPIEGPVKIKFTSNGKPHEIDVEVYVLPPGNLIIYFPDESIMLPADNIEIESAGGSAGGS [r12_790_TrROS] , I found its folding stability dG unfold recorded as 1.91 kcal/mol

Looking up SAGGSAPPTYTFMIPIKEIYVPDPDNGKPKPIPVEEFADFLMPKFGIDVEILDVHPDWIQITVTPDSAGGSA [r15_55_TrROS] , I found its folding stability dG unfold recorded as 1.49 kcal/mol

Looking up SAGGSAGGSPLVKTTTSVDPVGPDRTLTTSTATLPSGGTTVTTTTFLTSPDGTVPVATTTTPSASAGGSAGG [r6_471_JUSTAS] , I found its folding stability dG unfold recorded as 0.24 kcal/mol

Looking up SAGGSAGGSKGKKITIILPPGMPPDAIKNWLAPLGINITIEPIPVVKPKRDPDDGEETYEPYGSAGGSAGGS [r12_80_TrROS] , I found its folding stability dG unfold recorded as 0.596 kcal/mol

Looking up SAGGSAGGSAKITIELDGITEVEFDEETGELYLRIEVDGKLYEIRITEDGTIEIREVPLEDSAGGSAGGSAG [r3_62_TrROS_Hall] , I found its folding stability dG unfold recorded as 3.63 kcal/mol

###

- measurement description: folding stability dG unfold from chymotrypsin proteolysis; higher = more stable
Measured folding stability dG unfold, listed per entry.
Quick reminder: number only, in kcal/mol, skip the unit.

Looking up SAGGSAGGSAGGMNIKVLKEFEFETEDGVPVRYLLVDAGGEEGETVVIKETPTSIEIIPFSAGGSAGGSAGG [r7_960_TrMRF] , I found its folding stability dG unfold recorded as 0.511

Looking up SAGMIRIIVDGKEVEEIEMSEEELRALLADPNIKKARVFVNGEEKEVEVKEGEIKEKLPPGAVIRIEKSAGG [r19_152_TrROS_Hall] , I found its folding stability dG unfold recorded as 2.04

More entries:
Looking up SMVVPVLIEKPYTSPEELEEFKKEAEELVKKLAEETGYPIKVLETKYTTDPNTNVVSLTLVVEIVSPELNSA [r9_105_JUSTAS] , I found its folding stability dG unfold recorded as 2.6

Looking up SPVKWGEEKTYTYPFPDNPNYRIKIKVHVYKDPENGRPYVRMNIEVYNNGKPRKYNINMPVDQLKDLLQFSA [r9_71_TrROS] , I found its folding stability dG unfold recorded as 2.66

Looking up SAGGSAGGSAPPPPPPVYRIPIEITEIDPNGKITVTLPDLGEEITFPAPNVEVIPGDEFYIPSAGGSAGGSA [r18_89_TrROS] , I found its folding stability dG unfold recorded as 1.67

Looking up SAGGTIKPGQPVRIRAEWYNGNKEWTHTHEFPLPENQTLDDVADEILEHLPPEHNKNFKVRIEIEPVSAGGS [r16_321_TrROS] , I found its folding stability dG unfold recorded as 0.904

Looking up SAGGSAGGSGHHHMTTRTSTSTDPATGSTTVTTTRTTTDGGTVTTTTTLPPPAATTTTSTTTSSAGGSAGGS [r12_1029_JUSTAS] , I found its folding stability dG unfold recorded as 0.349

###

- measurement description: folding stability dG unfold (combined trypsin and chymotrypsin); higher = more stable
Measured folding stability dG unfold, listed per entry.
Quick reminder: number only, in kcal/mol, skip the unit.

Solved entries (count: 3):
Looking up SAGGSAGGSMKTYTLPNGLRVQLVRVDKKTKTITLKVFDKNGELVEEIEIKVDEPVELLVVYPSAGGSAGGS [r12_960_TrROS_Hall] , I found its folding stability dG unfold recorded as 2.45

Looking up SIYIKIPIDEIKPEWNKNGMITLEIKYPNGKTIKFEFPPGFQIDNIEVIKPGWIMFEFEIVPPADPEDAKSA [r9_501_TrROS] , I found its folding stability dG unfold recorded as 2.2

Looking up SAGGSAGGSAGMDKDGKWRRIPFMFVNPGDGYIFKWEIWIYPGGNIELEMEIIGPIKPGASAGGSAGGSAGG [r11_226_TrROS] , I found its folding stability dG unfold recorded as 4.28

Now consider the entry below.
Looking up SAGGSAMTITEDGTLTLEIKVPEDAPEATVKVTVLTDGKTLGEADPATGKVTLKVPPDVEVKVEVASAGGSA [r15_180_TrMRF] , I found its folding stability dG unfold recorded as 1.69

###

- measurement description: folding stability dG unfold from chymotrypsin proteolysis; higher = more stable
Measured folding stability dG unfold, listed per entry.
Quick reminder: number only, in kcal/mol, skip the unit.

Looking up SAGGSAGGSAGMETTDSVITYPDGSVVTVTTLPDGTTRVTTFYPESGLTEEEIVPAAELGSAGGSAGGSAGG [r11_1015_JUSTAS] , I found its folding stability dG unfold recorded as 2.56

Looking up SAGGSAGGSAGKWIMFDSPEDIEEKLKENGYRIKNIEPQKMGGGPHVYVPIEIKPPPEDKSAGGSAGGSAGG [r11_141_TrROS] , I found its folding stability dG unfold recorded as 0.43

Looking up SAGGKTLYVVRITRRVRVDGKLYEVTLTLVAESEEEAEEALRKLAEELEALFPDEIRIEVEKVELPPSAGGS [r16_475_TrROS_Hall] , I found its folding stability dG unfold recorded as 5.7

Looking up SAGGSAMFKSPSDKYFEPIAVIDLEKASPETLKALLEENPGKLLVIPKSTGKPRLIPAEELLELLGSAGGSA [r15_904_TrMRF] , I found its folding stability dG unfold recorded as -0.154

###

- measurement description: folding stability dG unfold from chymotrypsin proteolysis; higher = more stable
Measured folding stability dG unfold, listed per entry.
Quick reminder: number only, in kcal/mol, skip the unit.

Looking up SAGGSAGGLKPGEEWLILFRIDIEIEPMPPNMSPDMAKRFPNMYHIEVKIDILIIPAEDLKELFSAGGSAGG [r6_831_TrROS] , I found its folding stability dG unfold recorded as 3.74

Looking up SAGGPPGWKPVEMKITVMFDDPEEAAEKIKEEVRSHFPNIEITKVEVQRNPENNMYMVTVDIRMWVPSAGGS [r8_120_TrROS] , I found its folding stability dG unfold recorded as 3.37

Looking up SAGGSAGGSAGGELNIDDIKIDWFPADDMDDRYIFTEKIRGPNGKPTMEVTFWLPAGDLSAGGSAGGSAGGS [r10_155_TrROS] , I found its folding stability dG unfold recorded as -0.261

Looking up SAGGSSYIVKATPAGGPSFEAEATLTSVSSEGDNFTANVEVTFDGKPVTLTFDGDKVGPVVIEPPESAGGSA [r2_319_TrMRF] , I found its folding stability dG unfold recorded as 0.558

###

- measurement description: folding stability dG unfold from chymotrypsin proteolysis; higher = more stable
quantity name: folding stability dG unfold (kcal/mol)
Quick reminder: number only, in kcal/mol, skip the unit.

Looking up SAGGSAVERLRELLKELGVEVTVERKDGKVYIRVEASPEKREKLAEALRELFGKDIEIEVLEEGEEPSAGGS [r16_514_TrROS_Hall] , I found its folding stability dG unfold recorded as 3.17

Looking up SAEVETVTLELELPEDGYRVTITVTYNKETGEVTVEIRIINPNGEEKTITIKVKSLEEALKKLEFKLLPSAG [r14_749_TrROS_Hall] , I found its folding stability dG unfold recorded as 2.45

Looking up SKETETVEMEITITVNGKKVKIKATFTRNKDGSITMTITYEDGKKIEITFTNGKIVIVDKKTKKIIAEIPSA [r9_970_TrROS_Hall] , I found its folding stability dG unfold recorded as 4.41

Now consider the entry below.
Looking up SAGGSAGGMVITFTAPDGTPLGTVEVELPPNNPEAEEEARELAEALRAELEEAGRPVAATVEPASAGGSAGG [r6_884_JUSTAS] , I found its folding stability dG unfold recorded as 0.903
